SYSTEM_UNDER_TEST: T1, HLA-A2.1 on T2 cells (human)
T1 construct: Peptide-receptive HLA-A2.1 on T2 cells; also called HLA-A2.1 MHC class I molecules
TEST_PROTOCOL: peptide binding to HLA-A2.1+ T2 cells, complex stability; Brefeldin A overnight (T2 alone 255)
Recorded binding score (HLA-A2.1 on T2 cells) values for a group of binders are listed next.
// return just the number, without any unit appended

| BINDER | binding score (HLA-A2.1 on T2 cells) |
| --- | --- |
| YLISGDSPV (Modified CD33 peptide) [YLISGDSPV (SEQ ID NO: 7)] | 479 |
| YIILGDSPV (Modified CD33 peptide) [YIILGDSPV (SEQ ID NO: 12)] | 323 |
| YIISGDSWV (Modified CD33 peptide) [YIISGDSWV (SEQ ID NO: 14)] | 298 |
| YIIIGDSPV (Modified CD33 peptide) [YIIIGDSPV (SEQ ID NO: 11)] | 325 |
| YIISGDLPV (Modified CD33 peptide) [YIISGDLPV (SEQ ID NO: 13)] | 296 |

The value of binding score (HLA-A2.1 on T2 cells) measured for the binder YIISGDSPV (Modified CD33 peptide) [YIISGDSPV (SEQ ID NO: 3)] turned out to be 248

Per the records, this binder ( YIISGISPV (Modified CD33 peptide) [YIISGISPV (SEQ ID NO: 6)] ) has binding score (HLA-A2.1 on T2 cells) equal to 593

According to the records, this binder TIQLNVTYV (Native CD33 nonamer, extracellular domain; also called CD33226-234) [CD33 peptide TIQLNVTYV (residues 226-234, SEQ ID NO: 9)] displays binding score (HLA-A2.1 on T2 cells) of 404

The value of binding score (HLA-A2.1 on T2 cells) measured for the binder ALISGDSPV (Modified CD33 peptide) [ALISGDSPV (SEQ ID NO: 16)] turned out to be 366

Sure, the documented binding score (HLA-A2.1 on T2 cells) for YIISGDSPL (Modified CD33 peptide) [YIISGDSPL (SEQ ID NO: 15)] is 157
